test: Mouse Pharmacokinetic Study (Example 1C); assay type: in vivo; conditions: mouse; CD-1 mice, iv, 3 mg/kg; plasma; read-out: Vdss
assay.endpoint: Vd (L/kg)
Express your answer in L/kg, writing the number without its unit.

INSERT INTO results (molecule, assay_endpoint, unit_tag, recorded_result) VALUES
  ('CN(C)c1cnn2c(NCCc3c[nH]c4ccccc34)cc(-c3cncc(F)c3)nc12 [I-203]', 'Vd', 'L/kg', 5.8),
  ('CN(C)c1cnn2c(N[C@@H]3CCc4[nH]c5ccccc5c4C3)nc(-c3cncc(F)c3)nc12 [I-129]', 'Vd', 'L/kg', 22);

For the molecule C[C@@H](O)c1cnn2c(NCCc3c[nH]c4ccccc34)cc(-c3cncc(F)c3)nc12 [I-222a] , what Vd is on record?
1.5

For the molecule Fc1cncc(-c2nc(N[C@@H]3CCc4[nH]c5ccccc5c4C3)c3ncccc3n2)c1 [I-126] , what Vd is on record?
17
